Target: P2Y purinoceptor 11 (Homo sapiens, UniProt Q96G91)
Sequence (Q96G91 whole entry): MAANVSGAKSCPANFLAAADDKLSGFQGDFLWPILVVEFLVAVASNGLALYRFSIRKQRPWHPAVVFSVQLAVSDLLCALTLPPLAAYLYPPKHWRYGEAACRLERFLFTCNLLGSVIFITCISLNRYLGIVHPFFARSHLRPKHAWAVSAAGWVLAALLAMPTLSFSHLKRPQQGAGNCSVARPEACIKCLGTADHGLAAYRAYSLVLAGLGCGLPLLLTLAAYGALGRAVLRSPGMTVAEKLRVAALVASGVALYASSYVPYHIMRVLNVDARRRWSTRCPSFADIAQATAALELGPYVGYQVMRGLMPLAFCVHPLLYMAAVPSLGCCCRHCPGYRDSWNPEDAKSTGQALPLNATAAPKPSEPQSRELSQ
Experiment: Agonist activity against phospholipase C coupled human P2Y purinoceptor 11 (P2Y11)
Type: functional
pEC50: −log10 of the molar value.
Decision: pEC50 compared against 5; not below it gives rule met, below it gives rule not met.

// known answers, use as guide
compound="O=c1ccn([C@@H]2O[C@H](COP(=O)(O)OP(=O)(O)OP(=O)(O)O)[C@@H](O)[C@H]2O)c(=O)[nH]1 [URIDINE TRIPHOSPHATE]" assigned_category="rule not met"
compound="Nc1ncnc2c1ncn2[C@@H]1O[C@H](COP(=O)(O)OP(=O)(O)S)[C@@H](O)[C@H]1O (stereo partly drawn)" assigned_category="rule not met"
compound=CNc1nc(Cl)nc2c1ncn2[C@H]1C[C@@H](OP(=O)(O)O)[C@]2(COP(=O)(O)O)C[C@H]12 assigned_category="rule not met"
compound=CSc1nc(N)c2ncn([C@@H]3O[C@H](COP(=O)(O)OP(=O)(O)OP(=O)(O)O)[C@@H](O)[C@H]3O)c2n1 assigned_category="rule not met"
compound=Nc1ncnc2c1ncn2[C@@H]1O[C@H](CO[P@](=O)(O)O[P@](=O)(O)O[P@@](=O)(O)S)[C@@H](O)[C@H]1O assigned_category="rule met"
compound=CCCSc1nc(N)c2ncn([C@@H]3O[C@H](COP(=O)(O)OP(=O)(O)C(Cl)(Cl)P(=O)(O)O)[C@@H](O)[C@H]3O)c2n1 assigned_category="rule met"

# ---- query compound ----
query: # check: pEC50 of `Nc1c(S(=O)(=O)O)cc(Nc2ccc(Nc3nc(Cl)nc(Nc4cccc(S(=O)(=O)O)c4)n3)c(S(=O)(=O)O)c2)c2c1C(=O)c1ccccc1C2=O` is greater than or equal to 5
result: rule not met

---

Molecular target: P2Y purinoceptor 2 (Homo sapiens)
Sequence (P41231 whole entry): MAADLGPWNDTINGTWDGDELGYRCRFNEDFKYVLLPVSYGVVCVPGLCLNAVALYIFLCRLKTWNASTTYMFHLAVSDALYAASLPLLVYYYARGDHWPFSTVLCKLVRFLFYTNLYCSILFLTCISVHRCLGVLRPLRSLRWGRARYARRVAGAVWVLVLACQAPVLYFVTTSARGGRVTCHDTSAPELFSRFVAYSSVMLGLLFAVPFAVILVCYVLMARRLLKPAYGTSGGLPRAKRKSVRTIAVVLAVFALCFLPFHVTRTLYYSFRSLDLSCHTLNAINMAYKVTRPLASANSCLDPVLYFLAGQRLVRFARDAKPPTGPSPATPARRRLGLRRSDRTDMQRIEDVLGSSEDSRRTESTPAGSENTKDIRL
Assay: The compound was evaluated for antagonistic activity against P2Y purinoceptor 2 (P2Y2)
Measured endpoint: IC50 (µM)
Write the number in µM without appending the unit.

Short answer for Cc1cc(-c2ccc(/N=N/c3c(S(=O)(=O)O)cc4cc(S(=O)(=O)O)cc(N)c4c3O)c(C)c2)ccc1/N=N/c1c(S(=O)(=O)O)cc2cc(S(=O)(=O)O)cc(N)c2c1O [TRYPAN BLUE] : IC50 was 171

---

Molecular target: P2Y purinoceptor 12 (Rattus norvegicus, UniProt Q9EPX4)
Sequence (Q9EPX4 whole entry): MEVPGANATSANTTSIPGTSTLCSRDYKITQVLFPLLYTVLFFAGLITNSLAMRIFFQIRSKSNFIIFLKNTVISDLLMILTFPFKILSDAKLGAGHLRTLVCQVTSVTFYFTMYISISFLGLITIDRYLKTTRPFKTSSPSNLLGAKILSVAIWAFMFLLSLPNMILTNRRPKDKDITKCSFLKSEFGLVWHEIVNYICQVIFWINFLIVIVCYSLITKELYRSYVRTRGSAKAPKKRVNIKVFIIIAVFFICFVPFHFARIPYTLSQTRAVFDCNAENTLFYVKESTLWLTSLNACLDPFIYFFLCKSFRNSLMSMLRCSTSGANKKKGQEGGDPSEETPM
Assay: Antagonist activity against phospholipase C coupled rat P2Y purinoceptor 12 (P2Y12)
Mark yes for EC50 under 0.08 µM, no if at or over.

// known answers, use as guide
compound=Nc1ncnc2c1ncn2[C@@H]1O[C@H](CO[P@](=O)(O)O[P@](=O)(O)O[P@@](=O)(O)S)[C@@H](O)[C@H]1O assigned_category=no
compound="Cc1ccc(C(=O)Nc2ccc(S(=O)(=O)O)c3cc(S(=O)(=O)O)cc(S(=O)(=O)O)c23)cc1NC(=O)c1cccc(NC(=O)Nc2cccc(C(=O)Nc3cc(C(=O)Nc4ccc(S(=O)(=O)O)c5cc(S(=O)(=O)O)cc(S(=O)(=O)O)c45)ccc3C)c2)c1 [SURAMIN]" assigned_category=no
compound=CSc1nc(N)c2ncn([C@@H]3O[C@H](COP(=O)(O)OP(=O)(O)OP(=O)(O)O)[C@@H](O)[C@H]3O)c2n1 assigned_category=yes

query: Say whether its EC50 is strictly beneath 0.08 µM. Entry: `Nc1ncnc2c1ncn2[C@@H]1O[C@H](COP(=O)(O)CP(=O)(O)OP(=O)(O)O)[C@@H](O)[C@H]1O`
result: no

query: Say whether its EC50 is strictly beneath 0.08 µM. Entry: `CNc1nc(Cl)nc2c1ncn2[C@H]1C[C@@H](OP(=O)(O)O)[C@]2(COP(=O)(O)O)C[C@H]12`
result: no

query: Say whether its EC50 is strictly beneath 0.08 µM. Entry: `Cc1nc(/N=N/c2ccc(S(=O)(=O)O)cc2S(=O)(=O)O)c(COP(=O)(O)O)c(C=O)c1O`
result: no

query: Say whether its EC50 is strictly beneath 0.08 µM. Entry: `Nc1ncnc2c1ncn2[C@@H]1O[C@H](COP(=O)(O)OP(=O)(O)CP(=O)(O)O)[C@@H](O)[C@H]1O`
result: no

query: Say whether its EC50 is strictly beneath 0.08 µM. Entry: Nc1ncnc2c1ncn2[C@@H]1O[C@H](COP(=O)(O)OP(=O)(O)OP(=O)(O)O)[C@@H](O)[C@H]1O [ADENOSINE TRIPHOSPHATE]
result: no
